# target.desc: T1, SARS-CoV2 spike RBD variant strain (SPD-C52Hp, Acro Biosystems, K417N, E484K, N501Y) (SARS-CoV-2, UniProt P0DTC2 319-537)
# T1 construct: domain: RBD
# experiment: BLI (Octet), biotinylated RBD on SA sensor, VHH as analyte, 1:1 fit
property.measured: pKd
Reminder that pKd means the negative base-10 logarithm of the concentration expressed in mol/L.

Some binders with known pKd results, for comparison:
- Bacillus subtilis-derived VHH-COVE7 (VHH) VHH: EVQLVESGGGLVQAGDSLRLSCTASGRTFSSCAMGWFRQAPGKEREFVAAISRGGGSTSYADSVKGRFTISKDRARNTAYLEMNSLKPEDTAIYYCYAVFPSGGDYWGQGTQVTVSS: 7.03
- Bacillus subtilis-derived VHH-COVE8 (VHH) VHH: EVQLVESGGGLVQPGGSLTLSCAASGQTFSSYNMAWFRQSPGKEREFVATISWGGGSTGYADSVKGRFTISRDHAKNTVYLQMKDLKPEDTGAYYCYLVGLFGIQASDYWGQGTQVTVSS: 6.62
- Bacillus subtilis-derived VHH-COVE3 (VHH) VHH: AEVQLVESGGGFVQAGGSLRLSCRVSAPTFMTYTMAWFRQAPGNEREFVAALSKNFVTTSYADSVKGRFTISRDNAKNTVYLQMNSLKPEDTAVYYCNVAWSDYEYLEVWGQGTLVTVSSGGGSHHHHHH: 6.58
- Bacillus subtilis-derived VHH-COVE2 (VHH) VHH: AEVQLVESGGGLVQAGDSLRLSCAATRRTSSTYAMGWFRQAPGKGLEWVAAISWDGGRTYYAESVKGRFTISRDNAKNTVYLQMNSLKPEDTAVYYCYSFGGSDFLMDYWGQGTQVTVSSGGGSHHHHHH: 7.04
- Bacillus subtilis-derived VHH-COVE5 (VHH) VHH: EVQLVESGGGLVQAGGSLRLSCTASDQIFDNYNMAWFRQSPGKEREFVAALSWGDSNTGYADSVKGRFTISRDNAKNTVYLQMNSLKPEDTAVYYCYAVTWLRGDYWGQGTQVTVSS: 6.51

Now look at this entry.
stdin: Which pKd is listed for Bacillus subtilis-derived VHH-COVE9 (VHH) VHH: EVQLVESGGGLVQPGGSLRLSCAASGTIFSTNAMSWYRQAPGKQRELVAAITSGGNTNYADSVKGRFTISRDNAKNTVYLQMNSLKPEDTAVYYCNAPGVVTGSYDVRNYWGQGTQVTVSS ?
stdout: 7.96
